- experimentalTarget: human glucagon receptor (human, UniProt P47871 26-477)
- Sequence (P47871 26-477): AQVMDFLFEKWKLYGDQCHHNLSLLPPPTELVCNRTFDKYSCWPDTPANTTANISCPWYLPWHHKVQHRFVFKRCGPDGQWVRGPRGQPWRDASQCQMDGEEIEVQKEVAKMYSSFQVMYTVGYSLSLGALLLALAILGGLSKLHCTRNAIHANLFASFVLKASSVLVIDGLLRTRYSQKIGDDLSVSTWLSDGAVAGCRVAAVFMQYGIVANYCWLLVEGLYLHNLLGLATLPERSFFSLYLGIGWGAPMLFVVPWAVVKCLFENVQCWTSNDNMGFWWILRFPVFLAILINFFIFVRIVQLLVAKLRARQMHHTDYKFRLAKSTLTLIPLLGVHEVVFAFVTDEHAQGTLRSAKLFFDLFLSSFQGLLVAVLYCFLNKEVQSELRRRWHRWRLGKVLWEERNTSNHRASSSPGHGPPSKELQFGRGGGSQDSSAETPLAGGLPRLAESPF
- assayExplanation: cell-based or functional assay
reportedMetric: GCG-R EC50 in vitro [nM] (cAMP, AlphaScreen, HEK293 cells expressing human Glucagon-R) (nM)

{"binder": "H-HSQGTFTSDYSRYLESARAEDFVKWLEST-OH [Compound 7]", "valueMeasured": 0.93}
{"binder": "H-HSQGTFTSDYSKYLDSARAEDFVAWLEST-OH [Compound 4]", "valueMeasured": 0.34}
{"binder": "H-HSQGTFTSDLSKYLDSARAEDFVKWLEST-OH [Compound 11]", "valueMeasured": 0.11}
{"binder": "H-HSQGTFTSDYSKYLDKRRAEDFVSWLEST-OH [Compound 18]", "valueMeasured": 0.026}
{"binder": "H-HSQGTFTSDYSKYLDEARAEDFVKWLEST-OH [Compound 14]", "valueMeasured": 0.15}
{"binder": "H-HSQGTFTSDYSKYLDEARAKDFVEWLEKT-OH [Compound 5]", "valueMeasured": 0.17}
